Target: PYL2-HAB1 (Arabidopsis thaliana, UniProt O80992)
Construct: 6xHis (N); made in house; host or cells: E. coli BL21[DE3]pLysS (stated for GST-HAB1)
Sequence (O80992 1-190): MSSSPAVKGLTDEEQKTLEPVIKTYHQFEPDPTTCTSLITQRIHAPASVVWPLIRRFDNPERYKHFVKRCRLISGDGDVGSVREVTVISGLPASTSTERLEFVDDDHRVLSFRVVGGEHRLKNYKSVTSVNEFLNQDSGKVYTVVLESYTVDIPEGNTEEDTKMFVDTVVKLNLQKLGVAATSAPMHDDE
Sequence (Q9CAJ0 23-511 partner): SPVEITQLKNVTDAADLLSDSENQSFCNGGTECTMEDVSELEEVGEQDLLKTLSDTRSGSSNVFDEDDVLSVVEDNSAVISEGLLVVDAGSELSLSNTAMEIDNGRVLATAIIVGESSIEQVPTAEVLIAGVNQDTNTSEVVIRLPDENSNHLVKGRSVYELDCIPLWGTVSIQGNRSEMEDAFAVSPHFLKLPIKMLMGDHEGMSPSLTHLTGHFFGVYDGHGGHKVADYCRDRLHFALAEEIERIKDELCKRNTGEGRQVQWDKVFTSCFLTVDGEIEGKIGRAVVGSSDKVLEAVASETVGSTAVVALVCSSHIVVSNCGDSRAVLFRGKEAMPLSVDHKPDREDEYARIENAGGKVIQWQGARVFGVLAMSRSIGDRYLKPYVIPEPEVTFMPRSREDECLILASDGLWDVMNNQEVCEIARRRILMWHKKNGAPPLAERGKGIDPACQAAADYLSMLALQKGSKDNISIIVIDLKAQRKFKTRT
Test: PP2C activity assay, PYL2-HAB1 inhibition
Format: biochemical
Details: dose response in triplicate, non-linear regression
Experimental Endpoint: IC50 (nM)

Identify measured IC50 obtained with PYL2-HAB1 (Arabidopsis thaliana, UniProt O80992) for Cc1ccc(CS(=O)(=O)Nc2cc(F)c3c(c2)C(C)CC(=O)N3C2CC2)cc1 (stereo not shown) .
77

Identify measured IC50 obtained with PYL2-HAB1 (Arabidopsis thaliana, UniProt O80992) for CCCN1C(=O)CCc2cc(NS(=O)(=O)Cc3ccc(C)cc3)cc(Cl)c21 .
74

Identify measured IC50 obtained with PYL2-HAB1 (Arabidopsis thaliana, UniProt O80992) for CCCN1C(=O)CCc2cc(NS(=O)(=O)Cc3ccc(C)cc3)cc(C#N)c21 .
1450

Identify measured IC50 obtained with PYL2-HAB1 (Arabidopsis thaliana, UniProt O80992) for CCN1C(=O)CC(C)c2cc(NS(=O)(=O)Cc3ccc(Cl)nc3)cc(F)c21 (stereo not shown) .
486

Identify measured IC50 obtained with PYL2-HAB1 (Arabidopsis thaliana, UniProt O80992) for CCc1ccc(CS(=O)(=O)Nc2cc(F)c3c(c2)C(C)CC(=O)N3CC)cc1 (stereo not shown) .
12

Identify measured IC50 obtained with PYL2-HAB1 (Arabidopsis thaliana, UniProt O80992) for CCN1C(=O)CC(C)c2cc(NS(=O)(=O)Cc3ccc(C)cc3Br)cc(F)c21 (stereo not shown) .
4470

Identify measured IC50 obtained with PYL2-HAB1 (Arabidopsis thaliana, UniProt O80992) for CCN1C(=O)CC(C)c2cc(NS(=O)(=O)Cc3ccc(C)cc3F)cc(F)c21 (stereo not shown) .
23

Identify measured IC50 obtained with PYL2-HAB1 (Arabidopsis thaliana, UniProt O80992) for CCN1C(=O)CC(C)c2cc(NS(=O)(=O)Cc3ccc(C)cn3)cc(F)c21 (stereo not shown) .
160

Identify measured IC50 obtained with PYL2-HAB1 (Arabidopsis thaliana, UniProt O80992) for CCCN1C(=O)CCc2c1ccc(NS(=O)(=O)Cc1ccc(C)cc1)c2F .
1460

Identify measured IC50 obtained with PYL2-HAB1 (Arabidopsis thaliana, UniProt O80992) for CCCN1C(=O)CCc2cc(NS(=O)(=O)Cc3ccc(C)cc3)cc(Br)c21 .
239

a: CCN1C(=O)CC(C)c2cc(NS(=O)(=O)Cc3ccc(Cl)s3)cc(F)c21 (stereo not shown)
b: CCN1C(=O)CC(C)c2cc(NS(=O)(=O)Cc3ccc(Cl)cn3)cc(F)c21 (stereo not shown)
Short answer wanted: higher IC50, a or b ? Field: selected label. Fill in the label of the entry you choose.
b

1: CCN1C(=O)CC(C)c2cc(NS(=O)(=O)Cc3ccc(C)nc3)cc(F)c21 (stereo not shown)
2: CCCN1C(=O)CCc2cc(NS(=O)(=O)Cc3ccc(Br)cc3)cc(F)c21
Would you mind telling me which has the lower recorded IC50 between 1 and 2 ? Field: selected label. Fill in the label of the entry you choose.
2
(2: 77 nM, 1: 1600 nM)

The reported measurements were obtained from patent US11332443B2.
